Provide the reported z-score of each item.
assay_remarks: mitochondrial membrane potential change in A549 cells, profiling panel, cell-based, JC-1 fluorescence, basal, 24 h, 100 nL (AID 1138);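 further: A549 lung adenocarcinoma cells under basal conditions with no added stimulus; test concentration not given here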
study_conditions: higher = more signal
Could you keep your reply to the number by itself?

The recorded z-score for entry CC(C)(C)OC(=O)CC[C@@]1(C(=O)NCC(O)CO)N=C(c2ccc(OCCCO)cc2)O[C@@H]1c1ccccc1N=[N+]=[N-] (some centres undefined) equals 1.18

The recorded z-score for entry C=C(COC)/C(=C/C[C@@H](OC(C)=O)c1ccc(CO)o1)c1cnc2ccccc2c1 equals -0.482

The recorded z-score for entry C#CCN(CC=C(C)C)[C@H](CO)c1ccccc1 equals -1.47

The recorded z-score for entry COCCOC(=O)N1C(=O)[C@@]2(c3cc(C#CCCO)ccc31)[C@H](C(=O)N1CCc3cc(OC)c(OC)cc3C1)[C@H]1C(=O)O[C@H](c3ccccc3)[C@H](c3ccccc3)N1[C@@H]2c1ccc(O)cc1 equals 0.188

The recorded z-score for entry O=C1O[C@H](c2ccccc2)[C@H](c2ccccc2)N2[C@H]1[C@@H](C(=O)Nc1nc3ccccc3s1)[C@]1(C(=O)Nc3ccc(C#CC4(O)CCCCCC4)cc31)[C@H]2c1ccc(OCCO)cc1 equals -2.27

The recorded z-score for entry COC(=O)c1c(CC[C@@H](CO)NC(=O)N[C@@H](C)Cn2cc(C3(O)CCCCC3)nn2)oc(C(C)=O)c1C(=O)OC equals -1

The recorded z-score for entry COCCOC(=O)N1C(=O)[C@@]2(c3cc(C#CC4(O)CCCCCC4)ccc31)[C@H](c1ccc(O)cc1)N1[C@H](c3ccccc3)[C@H](c3ccccc3)OC(=O)[C@H]1[C@@H]2C(=O)Nc1nc2ccccc2s1 equals -1.85

The recorded z-score for entry C[C@]1(C(=O)NC2CC2)c2ccccc2C(=O)N(Cc2cc(C(F)(F)F)cc(C(F)(F)F)c2)[C@H]1c1ccc(CO)cc1 equals 1.73

The recorded z-score for entry O=C(NCc1ccccc1)[C@@]1(CCS(=O)(=O)c2ccccc2)N=C(c2ccc(OCCCO)cc2)O[C@H]1c1ccccc1 equals -0.346

The recorded z-score for entry CN1C(=O)C2C=CC(C(O)C3=C[C@H]4C[C@@H](C3)C4(C)C)N(Nc3ccccc3)C2C1=O (some centres undefined) equals -0.838

The recorded z-score for entry O=C1NC(=O)C2C1C=CC(C(O)Cc1ccccc1)N2Nc1ccc(Cl)cc1Cl (centres undefined) equals 2.92

The recorded z-score for entry O=C1c2ccccc2[C@@]2(Cc3ccccc3N(CCN3CCOCC3)C2=O)[C@H](c2ccc(CO)cc2)N1Cc1ccccc1 equals 0.202

The recorded z-score for entry CC(C)OC(=O)C=C1C[C@@H](c2ccccc2C(F)(F)F)O[C@@H](c2ccccc2C(F)(F)F)O1 equals 1.81

The recorded z-score for entry CC(=O)NCCCC[C@@H]1NC(=O)[C@@H]2C[C@H](C(=O)NCCCCCCNC(=O)CS)[C@H](c3cccc(OCCO)c3)N2C1=O equals 0.488

The recorded z-score for entry COC(=O)[C@@]1(Cc2ccc(F)cc2)[C@H]2c3cc(C(=O)N(C)C)n(Cc4ccc(S(C)(=O)=O)cc4)c3C[C@H]2CN1C(=O)c1ccccc1 equals 0.521

The recorded z-score for entry COc1cc2c(cc1OC)CN(C(=O)[C@H]1[C@@H]3C(=O)O[C@@H](c4ccccc4)[C@@H](c4ccccc4)N3[C@@H](c3ccc(O)cc3)[C@]13C(=O)Nc1ccc(C#CCNC(N)=O)cc13)CC2 equals -0.73

The recorded z-score for entry O=C(NCc1ccc(F)cc1)[C@H]1C[C@H]2C(=O)N[C@@H](Cc3ccccc3)C(=O)N2[C@H]1c1ccc(O)cc1 equals 0.574

The recorded z-score for entry C=CC[C@@]1(C(N)=O)N=C(c2ccc(OCCCO)cc2)O[C@@H]1c1ccccc1CN=[N+]=[N-] equals -0.95

The recorded z-score for entry C#CCN(CC1=CCCCC1)[C@H](c1ccccc1Br)[C@@H](O)Cc1ccccc1 equals -1.27

The recorded z-score for entry CCCCCC1=C2CNC(CCC)(C(=O)OC)C=C2C(C)C1=O (centres undefined) equals 0.424

The recorded z-score for entry O=C1O[C@H](c2ccccc2)[C@H](c2ccccc2)N2[C@H]1[C@@H](C(=O)Nc1nc3ccccc3s1)[C@]1(C(=O)Nc3ccc(C#CCCO)cc31)[C@H]2c1ccc(OCCO)cc1 equals -2.36

The recorded z-score for entry [N-]=[N+]=Nc1ccccc1C[C@]1(C(N)=O)N=C(c2ccc(OCCCO)cc2)O[C@H]1c1ccccc1 equals 0.518

The recorded z-score for entry C=CC[C@@]1(C(=O)N(C)C)N=C(c2ccc(OCCCO)cc2)O[C@@H]1c1ccccc1N=[N+]=[N-] equals 0.857

The recorded z-score for entry COC(=O)[C@@]1(Cc2ccccc2)[C@H]2c3cc(C(=O)N4CCCC4)n(Cc4nc5ccccc5[nH]4)c3C[C@H]2CN1C(=O)c1ccccc1 equals 1.05

The recorded z-score for entry CC(C)(C)OC(=O)CC[C@]1(C(=O)NCC(O)CO)COC(c2ccc(OCCCO)cc2)=N1 (some centres undefined) equals -0.328

The recorded z-score for entry [N-]=[N+]=NCc1ccccc1C[C@]1(C(=O)NCC(O)CO)N=C(c2ccc(OCCCO)cc2)O[C@H]1c1ccccc1 (some centres undefined) equals -0.077

The recorded z-score for entry O=C1C2C=CC(C(O)c3c(F)cccc3Cl)N(Nc3ccccc3)C2C(=O)N1c1ccccc1 (centres undefined) equals 0.555

The recorded z-score for entry CC(C)[C@@H](CO)NC(=O)[C@H]1[C@@H](c2ccccc2)N(c2ccccc2)O[C@@H]1C equals 0.204

The recorded z-score for entry C=CCNC(=O)[C@H]1[C@@H]2C(=O)O[C@@H](c3ccccc3)[C@@H](c3ccccc3)N2[C@@H](c2ccccc2OCCO)[C@]12C(=O)Nc1ccc(C#CC3=CCCCC3)cc12 equals -0.856
